biological target: T1, human BACE1 ECD; experiment: Octet, pH 7.5;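 also: antibodies captured on anti-human capture sensor tips, dissociation monitored in PBS with BSA, Kd obtained from kinetic fit to a one-to-one binding model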
T1 construct: analyte of the Octet assay (200 nM) and enzyme of the first short substrate assay; also called human BACE1 extracellular domain
T1 sequence (single chain, as listed by the source limits assumed): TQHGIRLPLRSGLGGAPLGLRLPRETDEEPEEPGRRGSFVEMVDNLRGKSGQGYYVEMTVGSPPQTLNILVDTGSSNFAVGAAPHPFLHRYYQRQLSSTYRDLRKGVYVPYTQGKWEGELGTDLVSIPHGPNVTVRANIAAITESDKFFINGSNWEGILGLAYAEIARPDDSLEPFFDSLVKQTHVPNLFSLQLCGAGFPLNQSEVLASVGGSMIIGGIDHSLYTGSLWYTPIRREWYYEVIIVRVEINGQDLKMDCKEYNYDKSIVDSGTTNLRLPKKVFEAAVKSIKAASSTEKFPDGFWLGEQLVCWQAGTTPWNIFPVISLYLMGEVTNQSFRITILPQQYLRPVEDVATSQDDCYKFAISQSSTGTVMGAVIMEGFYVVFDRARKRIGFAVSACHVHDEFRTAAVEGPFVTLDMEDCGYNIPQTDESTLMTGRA
pKd: −log10 of the molar value.
RECORDED_ENDPOINT: pKd

Asked: Which pKd value belongs to anti-BACE1 antibody 6266 (antibody, V domains shown, Fully human antibody) VH: EVQLVQSGAEVKKPGSSVKVSCKASGGTLSGYGVSWVRQAPGQGLEWMGNIIPGFGTANYAQKFQGRVTITADESTSTAYMELSSLRSEDTAVYYCARSGGTKYGMLDVWGQGTMVTVSS VL: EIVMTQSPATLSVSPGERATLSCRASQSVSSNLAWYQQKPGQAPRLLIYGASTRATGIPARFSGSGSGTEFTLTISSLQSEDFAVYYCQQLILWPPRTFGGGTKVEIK ?
Given back: > 9.52

Asked: Could you do the same for 6276 (antibody, V domains shown, anti-BACE1 IgG) VH: QVQLVQSGAEVKKPGSSVKVSCKASGGTFRGYAISWVRQAPGQGLEWMGNIIPGLSTANYAQKFQGRVTITADESTSTAYMELSSLRSEDTAVYYCARSGGTKYGMLDVWGQGTMVTVSS VL: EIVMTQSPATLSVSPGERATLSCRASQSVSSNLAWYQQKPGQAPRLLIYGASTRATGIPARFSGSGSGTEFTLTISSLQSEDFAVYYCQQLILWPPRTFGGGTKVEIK , please?
Given back: > 9.23

Asked: Please answer likewise for 6294 (antibody, V domains shown, anti-BACE1 IgG) VH: QLQLQESGPGLVKPSETLSLTCTVSGGSISSSSHYWGWIRQPPGKGLEWIGMIYYSGSTWYNPSLKSRVTISVDTSKNQFSLKLSSVTAADTAVYYCARVGHGVSYFDLWGRGTLVTVSS VL: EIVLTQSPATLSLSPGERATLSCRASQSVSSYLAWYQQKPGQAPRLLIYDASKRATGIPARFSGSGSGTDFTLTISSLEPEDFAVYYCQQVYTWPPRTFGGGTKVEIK
Given back: > 9.52
